Test system: Entamoeba histolytica
Experiment: Antiprotozoal activity against trophozoite stage of Entamoeba histolytica HM-1:IMSS assessed as growth inhibition after 48 hrs by haemocytometric analysis
Format: functional, organism-based
# note: boundary value 60 nM maps to not satisfied; IC50 below it maps to satisfied

input: I'd appreciate it if you could check whether CCOc1ccc2c(c1)nc(SCCn1ccnc1)n2C has IC50 smaller than 60 nM.
output: satisfied

input: I'd appreciate it if you could check whether Cn1c(SCCn2ccnc2)nc2ccc(Cl)cc21 has IC50 smaller than 60 nM.
output: not satisfied

input: I'd appreciate it if you could check whether c1ccc2[nH]c(SCCn3ccnc3)nc2c1 has IC50 smaller than 60 nM.
output: not satisfied

input: I'd appreciate it if you could check whether CCOc1cc2nc(SCCn3ccnc3)[nH]c2cc1Cl has IC50 smaller than 60 nM.
output: not satisfied

input: I'd appreciate it if you could check whether CCOc1cc2nc(SCCn3ccnc3)n(C)c2cc1Cl has IC50 smaller than 60 nM.
output: satisfied

input: I'd appreciate it if you could check whether COC(=O)c1cc2nc(SCCn3ccnc3)[nH]c2cc1Cl has IC50 smaller than 60 nM.
output: satisfied

input: I'd appreciate it if you could check whether COC(=O)c1cc2nc(SCCn3ccnc3)n(C)c2cc1Cl has IC50 smaller than 60 nM.
output: satisfied
